experimental.target: IRAK1 (Homo sapiens, UniProt P51617)
Sequence (P51617 whole entry): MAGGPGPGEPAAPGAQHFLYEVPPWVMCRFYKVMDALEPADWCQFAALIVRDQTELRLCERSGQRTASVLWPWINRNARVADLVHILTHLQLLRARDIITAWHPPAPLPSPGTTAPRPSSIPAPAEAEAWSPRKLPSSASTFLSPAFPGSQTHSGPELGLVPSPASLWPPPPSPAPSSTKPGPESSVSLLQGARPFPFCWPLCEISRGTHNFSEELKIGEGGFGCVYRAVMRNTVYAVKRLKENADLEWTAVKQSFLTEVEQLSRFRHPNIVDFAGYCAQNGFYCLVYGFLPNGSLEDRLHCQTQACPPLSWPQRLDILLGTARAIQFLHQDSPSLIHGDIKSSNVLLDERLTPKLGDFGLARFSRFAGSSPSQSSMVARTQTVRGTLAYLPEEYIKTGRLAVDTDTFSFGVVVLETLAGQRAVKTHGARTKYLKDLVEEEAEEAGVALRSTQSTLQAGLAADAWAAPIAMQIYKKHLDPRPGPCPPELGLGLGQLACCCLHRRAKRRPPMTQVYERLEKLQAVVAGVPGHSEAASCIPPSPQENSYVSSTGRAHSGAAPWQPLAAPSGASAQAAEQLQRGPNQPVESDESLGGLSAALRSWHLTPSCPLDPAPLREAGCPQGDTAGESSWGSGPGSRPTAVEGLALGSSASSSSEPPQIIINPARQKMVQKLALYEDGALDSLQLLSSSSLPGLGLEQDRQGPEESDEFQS
assay.summary: RBC HotSpot Kinase Assay, IRAK1
condition.description: isolated kinase enzyme, 33P-ATP, P81 filter-binding
From the text: This assay uses the isolated kinase enzyme. […] Unlike kinase binding assays that measure competition for ATP, the HotSpot Kinase Assay is a functional assay that measures catalytic activity; as such it measures relative functional potency regardless of the mechanism of enzyme inhibition. This assay uses the form of the various enzymes that are easiest to express, which may not necessarily be the form of the enzyme that exist in the cell. […]
Each entry belongs to exactly one class, chosen by where its IC50 falls: lower band = under 30 nM, central band = from 30 nM up to 70 nM, upper band = 70 nM and over

Reference set (4 entries):
FC(F)COc1cc2ncc(-c3cncc(N[C@H]4CNCC[C@@H]4F)n3)n2nc1C1CC1 = upper band
COc1cc2ncc(-c3ccnc(N[C@H]4CNCC[C@@H]4F)n3)n2nc1C1CCC1 [Compound 79a] = central band
COc1cc2ncc(-c3nc(N[C@H]4CNCC[C@@H]4F)ncc3F)n2nc1[C@H]1C[C@@H](O)C1 [Compound 126a] = central band
COc1cc2ncc(-c3nc(N[C@H]4CNCC[C@@H]4F)ncc3F)n2nc1N1CCS(=O)(=O)CC1 [Compound 122a] = lower band

Req: For CC(O)(c1ccc2ncc(-c3cncc(N[C@H]4CNCC[C@@H]4F)n3)n2c1)C(F)(F)F (single isomer, unassigned) [Compound 33a] , which IC50 bin applies?
Resp: lower band

Req: Check COc1cc2ncc(-c3nc(N[C@H]4CNCC[C@@H]4F)ncc3Cl)n2nc1C1CC1 [Compound 103a] too.
Resp: upper band

Req: Check CC(O)(c1ccc2ncc(-c3ccnc(N[C@@H]4CCCNC4)n3)n2c1)C(F)(F)F (single isomer, unassigned) [Compound 22a] too.
Resp: lower band

Req: Check COc1cc2ncc(-c3ccnc(N[C@H]4CNC[C@@H]4F)n3)n2nc1C1CC(C)(C)C1 [Compound 80a] too.
Resp: upper band

Req: Check COc1cc2ncc(-c3nc(N[C@@H]4CCCNC4)ncc3F)n2nc1C1CCCCC1 [Compound 65a] too.
Resp: lower band

Req: Check CC(O)(c1ccc2ncc(-c3cncc(N[C@H]4CNCC[C@@H]4F)n3)n2c1)C(F)(F)F (single isomer, unassigned) [Compound 31a] too.
Resp: lower band

Req: Check COc1cc2ncc(-c3nc(N[C@H]4CNCC[C@@H]4F)ncc3F)n2nc1N1CCCC1=O [Compound 108a] too.
Resp: upper band

Req: Check COc1cc2ncc(-c3nc(N[C@H]4CNC[C@@H]4F)ncc3F)n2nc1N1CCS(=O)(=O)CC1 [Compound 123a] too.
Resp: central band

Req: Check COc1cc2ncc(-c3ccnc(N[C@H]4CNC[C@@H]4F)n3)n2nc1C1CC2(CCC2)C1 [Compound 75a] too.
Resp: upper band

Req: Check COc1cc2ncc(-c3nc(N[C@H]4CNC[C@@H]4F)ncc3F)n2nc1N1CCCS1(=O)=O [Compound 111a] too.
Resp: central band

Req: Check COc1cnc(N[C@@H]2CCCNC2)nc1-c1cnc2cc(OC)c(C3CC3)nn12 [Compound 105a] too.
Resp: upper band
